Numbers sourced from patent US20200171136A1.

Target: Endoplasmic reticulum aminopeptidase 1 (ERAP1) (UniProt Q9NZ08 1-941, limits assumed)
Sequence (Q9NZ08 whole entry): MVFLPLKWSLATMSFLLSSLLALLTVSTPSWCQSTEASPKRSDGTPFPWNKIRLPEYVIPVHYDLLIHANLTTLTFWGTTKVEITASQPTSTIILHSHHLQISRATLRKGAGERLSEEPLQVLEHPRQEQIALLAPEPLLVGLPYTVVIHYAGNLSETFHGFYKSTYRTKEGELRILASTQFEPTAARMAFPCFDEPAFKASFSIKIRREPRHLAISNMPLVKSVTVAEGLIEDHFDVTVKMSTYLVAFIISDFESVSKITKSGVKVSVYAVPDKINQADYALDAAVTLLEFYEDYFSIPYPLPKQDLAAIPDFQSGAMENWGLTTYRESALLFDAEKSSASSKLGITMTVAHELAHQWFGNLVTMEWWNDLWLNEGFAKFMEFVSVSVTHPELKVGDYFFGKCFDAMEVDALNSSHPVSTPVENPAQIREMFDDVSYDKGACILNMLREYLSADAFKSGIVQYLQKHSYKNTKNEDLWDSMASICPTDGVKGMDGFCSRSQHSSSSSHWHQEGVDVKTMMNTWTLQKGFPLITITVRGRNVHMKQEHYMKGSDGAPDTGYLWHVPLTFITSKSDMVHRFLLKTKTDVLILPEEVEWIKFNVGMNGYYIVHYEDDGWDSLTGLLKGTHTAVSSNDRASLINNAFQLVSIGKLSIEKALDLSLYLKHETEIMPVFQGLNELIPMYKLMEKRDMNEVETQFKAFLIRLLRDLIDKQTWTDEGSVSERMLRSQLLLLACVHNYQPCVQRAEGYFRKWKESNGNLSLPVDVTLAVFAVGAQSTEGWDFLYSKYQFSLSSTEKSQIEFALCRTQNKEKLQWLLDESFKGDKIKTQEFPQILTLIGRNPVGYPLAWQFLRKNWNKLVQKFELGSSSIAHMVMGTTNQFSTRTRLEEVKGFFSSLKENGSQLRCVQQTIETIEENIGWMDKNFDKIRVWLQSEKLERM
Assay: cell-based or functional assay
Reported formation rate of … (SEQ ID NO: 19)(%) values for a set of binders
Kindly provide the numeric value in % only, without the unit symbol.

The following binders have reported results that may help.
{"columns": ["binder", "parameterMeasured", "quantitativeReadout"],
 "data": [
  ["CNGLYDGMEHL [peptide CNGLYDGMEHL (SEQ ID NO: 175)]", "formation rate of … (SEQ ID NO: 19)(%)", 82.2],
  ["CVGLYDGMEHL [peptide CVGLYDGMEHL (SEQ ID NO: 173)]", "formation rate of … (SEQ ID NO: 19)(%)", 0]
]}

Reported formation rate of … (SEQ ID NO: 19)(%) of CSGLYDGMEHL [peptide CSGLYDGMEHL (SEQ ID NO: 177)] : 1.1

Reported formation rate of … (SEQ ID NO: 19)(%) of CRGLYDGMEHL [peptide CRGLYDGMEHL (SEQ ID NO: 174)] : 0

Reported formation rate of … (SEQ ID NO: 19)(%) of CYGLYDGMEHL [peptide CYGLYDGMEHL (SEQ ID NO: 172)] : 0

Reported formation rate of … (SEQ ID NO: 19)(%) of CTGLYDGMEHL [peptide CTGLYDGMEHL (SEQ ID NO: 170)] : 89.4

Reported formation rate of … (SEQ ID NO: 19)(%) of CDGLYDGMEHL [peptide CDGLYDGMEHL (SEQ ID NO: 176)] : 25

Reported formation rate of … (SEQ ID NO: 19)(%) of CWGLYDGMEHL [peptide CWGLYDGMEHL (SEQ ID NO: 171)] : 0
